- ASSAY_TARGET: UniProt:P48039
- Sequence (P48039 whole entry): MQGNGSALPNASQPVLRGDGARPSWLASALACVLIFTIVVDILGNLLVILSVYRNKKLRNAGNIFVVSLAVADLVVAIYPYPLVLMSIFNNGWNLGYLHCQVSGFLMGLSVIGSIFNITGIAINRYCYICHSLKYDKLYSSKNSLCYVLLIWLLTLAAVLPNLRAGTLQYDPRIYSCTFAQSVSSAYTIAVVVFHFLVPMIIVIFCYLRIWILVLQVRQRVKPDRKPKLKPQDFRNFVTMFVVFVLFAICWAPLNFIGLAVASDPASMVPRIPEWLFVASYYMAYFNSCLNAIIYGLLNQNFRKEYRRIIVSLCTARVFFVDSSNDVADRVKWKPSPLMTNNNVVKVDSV
- TEST_METHOD_NOTES: cAMP assay (GloSensor), isoproterenol-stimulated cAMP in HEK cells
- Format: cell-based
- Design: expressed in transfected cells; host or cells: HEK-T (HEK-293 T) cells, co-transfected with GloSensor DNA
- TEST_CONDITIONS: HEK293, Table 1; agonist; normalized to melatonin response; read-out: MT1 % Emax (converted)
Outcome label depends on Emax relative to 90%: at/above gives criterion met, below gives criterion not met.

In [3]: df
Out[3]:
                                   compound     classification
0  COc1ccc(CNc2cccc(-c3nnc[nH]3)c2)cc1 [ZINC157665999]  criterion not met

**Query** Say whether COC(=O)c1ccc(I)c(Oc2ccnc(C)n2)c1 [ZINC432154404] shows Emax of 90% or more.
**Result** criterion met

**Query** Please answer likewise for CCc1nc(SCc2cccc(C(=O)OC)c2)nc(O)c1C [ZINC576887661]
**Result** criterion not met

**Query** Try COc1ccc(CN(C)C(=O)c2cccc(OC(F)F)c2)cc1O [ZINC353044322] next.
**Result** criterion not met

**Query** Next record, please: COCCN(Cc1ccc2c(c1)OCO2)c1nc(C(F)(F)F)ns1 [ZINC580731466]
**Result** criterion not met

**Query** Please do the same for COC(=O)c1cc(Cn2ccn3c(=O)cc(C)nc23)c(C)s1 [ZINC419113878] as well.
**Result** criterion not met

**Query** Same again, this time with COc1ccc2c(c1)N(Cc1ccc(C#N)c(OC)c1)CCO2 [ZINC442850041]
**Result** criterion met

**Query** What about this compound? CN(Cc1ccc2c(c1)OCO2)c1ccnc(Cl)c1 [ZINC301472854]
**Result** criterion met

**Query** How about this compound: Cn1c(=O)oc2c(NCc3ccc(-c4cc[nH]n4)o3)cccc21 [ZINC433313647]
**Result** criterion not met

**Query** And what about the compound COc1cccc2c1CCN(C(=O)c1ccc(F)nc1)C2 [ZINC182731037] ?
**Result** criterion not met

**Query** Same thing, different compound: COC(=O)c1sc(N(C)Cc2ccc(Cl)nc2)nc1Cl [ZINC92585174]
**Result** criterion met
